The entries below are paired with their reported IC50.
Biological target: FPTase (K-Ras substrate) (UniProt P29702+P49355)
Assay: in vitro FTase Inhibition Assay, K-Ras as substrate for farnesylation
Assay type: biochemical
Details: K-Ras used as substrate for farnesylation

COMPOUND	IC50
O=C1NC(=O)C(CCCC#Cc2cc(Cl)ccc2Cl)(S(=O)(=O)c2ccc(Oc3ccncc3)cc2)S1 (centres unmarked)	17 to 40 nM
COc1ccc(S(=O)(=O)C2(CCCC#Cc3cc(NC(=O)OC(C)(C)C)ccc3C)SC(=O)NC2=O)cc1 (single isomer, unassigned; more polar) [Example 223]	> 1000 nM
COc1ccc(S(=O)(=O)C2(CCCC#Cc3ccc(NC(=O)OC(C)(C)C)cc3C)SC(=O)NC2=O)cc1 (centres unmarked)	1000 to 4900 nM
Cc1cc([N+](=O)[O-])ccc1C#CCCCC1(S(=O)(=O)c2ccc(Oc3ccccc3)cc2)SC(=O)NC1=O (centres unmarked)	600 to 790 nM
COC(=O)c1ccc(C)c(C#CCCCC2(S(=O)(=O)c3ccc(OC)cc3)SC(=O)NC2=O)c1 (centres unmarked)	420 to 440 nM
Cc1cc(Br)ccc1C#CCCCC1(S(=O)(=O)c2ccc(I)cc2)SC(=O)NC1=O (centres unmarked)	320 to 550 nM
COc1ccc(S(=O)(=O)C2(CCCC#Cc3cc(NC(=O)OCc4ccc([N+](=O)[O-])cc4)ccc3C)SC(=O)NC2=O)cc1 (centres unmarked)	30 to 320 nM
COc1cccc(S(=O)(=O)C2(CCCC#Cc3cccs3)SC(=O)NC2=O)c1 (centres unmarked)	> 10000 nM
